- Tested On: F876L mutant Androgen Receptor (AR-F876L) (Homo sapiens (Human), UniProt P10275, F877L)
- Sequence (P10275 whole entry F877L): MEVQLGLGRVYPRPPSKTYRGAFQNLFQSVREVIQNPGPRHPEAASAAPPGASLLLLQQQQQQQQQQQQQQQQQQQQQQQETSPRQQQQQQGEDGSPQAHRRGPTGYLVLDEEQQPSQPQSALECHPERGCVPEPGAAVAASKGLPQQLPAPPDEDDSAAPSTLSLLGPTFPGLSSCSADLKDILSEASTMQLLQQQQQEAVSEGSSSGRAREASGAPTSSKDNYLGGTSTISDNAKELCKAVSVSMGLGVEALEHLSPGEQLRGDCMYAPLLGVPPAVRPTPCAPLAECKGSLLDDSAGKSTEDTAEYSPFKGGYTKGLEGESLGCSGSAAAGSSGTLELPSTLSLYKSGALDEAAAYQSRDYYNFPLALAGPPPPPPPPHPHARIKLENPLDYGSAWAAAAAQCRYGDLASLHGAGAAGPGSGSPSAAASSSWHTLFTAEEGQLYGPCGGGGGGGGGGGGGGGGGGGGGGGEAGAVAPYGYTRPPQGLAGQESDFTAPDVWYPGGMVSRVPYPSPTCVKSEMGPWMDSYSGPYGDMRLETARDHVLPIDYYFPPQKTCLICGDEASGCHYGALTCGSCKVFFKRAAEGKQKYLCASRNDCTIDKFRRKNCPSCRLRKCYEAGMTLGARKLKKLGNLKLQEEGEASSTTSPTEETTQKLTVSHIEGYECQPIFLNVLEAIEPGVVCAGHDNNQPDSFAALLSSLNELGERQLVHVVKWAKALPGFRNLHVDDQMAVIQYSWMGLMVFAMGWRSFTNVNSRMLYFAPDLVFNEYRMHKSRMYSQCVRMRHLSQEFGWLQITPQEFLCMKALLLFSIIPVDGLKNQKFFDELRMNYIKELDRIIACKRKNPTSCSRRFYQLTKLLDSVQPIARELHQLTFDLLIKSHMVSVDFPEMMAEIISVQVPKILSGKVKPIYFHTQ
- Assay Summary: LNCaP-AR-F876L ANT reporter assay (antagonist mode)
- Format: cell-based
- Test Context: antagonist mode; maximum % inhibition of R1881 control response over tested concentration range; read-out: LNCaP-AR-F876L ANT MAX % Inh
Metric: Emax (%)
# output: bare number, implied unit %

The following compounds have reported results that may help.
compound="COc1cc(N2C(=O)C3(CCC3)N(c3ccc4c(cnn4C4CCN(CCO)CC4)c3)C2=S)cnc1C#N [Cpd 225]" tested_on="F876L mutant Androgen Receptor (AR-F876L) (Homo sapiens (Human), UniProt P10275, F877L)" metric=Emax value=100
compound="CN1CCC[C@@H](CNC(=O)c2ccc(N3C(=S)N(c4cnc(C#N)c(C(F)(F)F)c4)C(=O)C34CCC4)cc2F)C1 [Cpd 200]" tested_on="F876L mutant Androgen Receptor (AR-F876L) (Homo sapiens (Human), UniProt P10275, F877L)" metric=Emax value=99.1
compound="N#Cc1ncc(N2C(=O)C3(CCC3)N(c3ccc(C(=O)NCC4CCNCC4)c(F)c3)C2=S)cc1C(F)(F)F [Cpd 221]" tested_on="F876L mutant Androgen Receptor (AR-F876L) (Homo sapiens (Human), UniProt P10275, F877L)" metric=Emax value=100

What Emax value was documented for this compound, CN1CCC(n2ccc3cc(N4C(=S)N(c5cnc(C#N)c(C(F)(F)F)c5)C(=O)C45CCC5)ccc32)CC1 [Cpd 251] ?
101

What Emax value was documented for this compound, CN1CCC(Cc2ccc(N3C(=S)N(c4cnc(C#N)c(C(F)(F)F)c4)C(=O)C34CCC4)cc2)CC1 [Cpd 237] ?
100
